target: ATP-dependent translocase ABCB1 (Homo sapiens); assay: TP_TRANSPORTER: Western blot, HK-2 cells; format: functional, cell-based
QUANTITY_MEASURED: Activity

# MOLECULE, Activity
data = [
    ("COc1ccc(CCN(C)CCCC(C#N)(c2ccc(OC)c(OC)c2)C(C)C)cc1OC (centres undefined)", "is not an inducer [-]"),
    ("COc1cc(Cc2cnc(N)nc2N)cc(OC)c1OC", "is not an inducer [-]"),
    ("CCCCCCCCCCCCCCCCOC[C@H](COP(=O)([O-])OCC[N+](C)(C)C)OC(C)=O", "inducer [+]"),
    ("C[C@@H]1C[C@H]2[C@@H]3CCC4=CC(=O)C=C[C@]4(C)[C@@]3(F)[C@@H](O)C[C@]2(C)[C@@]1(O)C(=O)CO", "inducer [+]"),
]

Request: Tell me Activity reported for `CN/C(=N/CCSCc1nc[nH]c1C)NC#N`
Response: is not an inducer [-]

Request: Quick one: give measured Activity for `C[C@]12CCC(=O)C=C1CC[C@@H]1[C@@H]2[C@@H](O)C[C@]2(C=O)[C@@H](C(=O)CO)CC[C@@H]12`
Response: inducer [+]

Request: Return Activity (reported value) for this molecule: `CC(=O)Nc1ccc2c(c1)Cc1ccccc1-2`
Response: inducer [Decrease]

Request: Provide one value: measured Activity of `Cc1ccc2cc3c(ccc4ccccc43)c3c2c1CC3`
Response: inducer [Decrease]

Request: For `CC(=O)[C@H]1CC[C@H]2[C@@H]3CCC4=CC(=O)CC[C@]4(C)[C@H]3CC[C@]12C` , write its Activity.
Response: is not an inducer [-]

###

biological target: ATP-dependent translocase ABCB1 (Homo sapiens, UniProt P08183); test: TP_TRANSPORTER: RT-PCR in HK-2 cell; format: functional, cell-based
Sequence (P08183 whole entry): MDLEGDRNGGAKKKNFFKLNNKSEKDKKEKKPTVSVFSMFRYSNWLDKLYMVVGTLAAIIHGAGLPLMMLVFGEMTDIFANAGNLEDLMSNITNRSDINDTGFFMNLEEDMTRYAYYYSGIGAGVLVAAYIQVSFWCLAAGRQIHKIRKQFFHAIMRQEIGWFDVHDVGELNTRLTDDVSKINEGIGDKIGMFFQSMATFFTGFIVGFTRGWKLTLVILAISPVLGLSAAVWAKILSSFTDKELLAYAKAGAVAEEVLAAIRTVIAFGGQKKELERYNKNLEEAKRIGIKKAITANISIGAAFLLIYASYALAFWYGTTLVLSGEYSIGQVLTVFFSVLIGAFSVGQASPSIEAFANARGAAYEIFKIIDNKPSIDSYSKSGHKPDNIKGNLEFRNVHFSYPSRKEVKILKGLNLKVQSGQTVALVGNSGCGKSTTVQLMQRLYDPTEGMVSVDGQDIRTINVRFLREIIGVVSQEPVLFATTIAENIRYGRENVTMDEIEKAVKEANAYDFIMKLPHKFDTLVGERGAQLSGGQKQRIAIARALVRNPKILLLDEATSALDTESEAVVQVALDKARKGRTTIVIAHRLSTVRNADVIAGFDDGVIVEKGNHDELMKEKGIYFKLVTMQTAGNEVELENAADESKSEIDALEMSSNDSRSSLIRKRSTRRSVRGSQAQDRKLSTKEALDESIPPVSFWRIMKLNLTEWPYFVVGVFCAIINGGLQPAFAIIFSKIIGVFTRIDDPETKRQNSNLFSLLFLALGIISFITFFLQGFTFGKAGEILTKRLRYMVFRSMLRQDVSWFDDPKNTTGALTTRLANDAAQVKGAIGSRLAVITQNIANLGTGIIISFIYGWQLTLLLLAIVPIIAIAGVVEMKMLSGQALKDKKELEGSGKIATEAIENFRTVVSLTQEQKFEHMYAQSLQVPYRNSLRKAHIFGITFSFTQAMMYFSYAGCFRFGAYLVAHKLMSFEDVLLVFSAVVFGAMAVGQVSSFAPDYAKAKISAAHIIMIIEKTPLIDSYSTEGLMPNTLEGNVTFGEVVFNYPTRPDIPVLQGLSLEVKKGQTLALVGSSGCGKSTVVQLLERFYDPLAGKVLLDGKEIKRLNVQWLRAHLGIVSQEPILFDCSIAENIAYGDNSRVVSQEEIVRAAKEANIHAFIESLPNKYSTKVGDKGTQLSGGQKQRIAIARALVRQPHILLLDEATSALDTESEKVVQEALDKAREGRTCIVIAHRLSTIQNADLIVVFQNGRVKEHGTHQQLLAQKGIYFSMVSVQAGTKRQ
QUANTITY_MEASURED: Activity

# MOLECULE, Activity
rows = [
    ("C[C@@H]1C[C@H]2[C@@H]3CCC4=CC(=O)C=C[C@]4(C)[C@@]3(F)[C@@H](O)C[C@]2(C)[C@@]1(O)C(=O)CO", "inducer [+]"),
    ("COc1cc(Cc2cnc(N)nc2N)cc(OC)c1OC", "is not an inducer [-]"),
    ("CN/C(=N/CCSCc1nc[nH]c1C)NC#N", "is not an inducer [-]"),
    ("CCCCCCCCCCCCCCCCOC[C@H](COP(=O)([O-])OCC[N+](C)(C)C)OC(C)=O", "inducer [+]"),
    ("CC(=O)[C@H]1CC[C@H]2[C@@H]3CCC4=CC(=O)CC[C@]4(C)[C@H]3CC[C@]12C", "is not an inducer [-]"),
]

Shifting focus to the molecule that follows.
Request: Tell me its Activity given COc1ccc(CCN(C)CCCC(C#N)(c2ccc(OC)c(OC)c2)C(C)C)cc1OC (configuration not stated) as the entry.
Response: is not an inducer [-]
